# CONDITION INFO: in methanol, 308.15 K
ASSAY METRIC: solubility (mole fraction)
Format: numeric value only, no unit, no commentary.

Q: Entry under review: CC(C)(C)c1cc(CCC(=O)OCC(COC(=O)CCc2cc(C(C)(C)C)c(O)c(C(C)(C)C)c2)(COC(=O)CCc2cc(C(C)(C)C)c(O)c(C(C)(C)C)c2)COC(=O)CCc2cc(C(C)(C)C)c(O)c(C(C)(C)C)c2)cc(C(C)(C)C)c1O . Reported solubility (mole fraction)?
Result: 0.000812

---

# CONDITION INFO: in ethanol, 308.15 K
ASSAY METRIC: solubility (mole fraction)
Format: numeric value only, no unit, no commentary.

Q: Entry under review: CC(C)(C)c1cc(CCC(=O)OCC(COC(=O)CCc2cc(C(C)(C)C)c(O)c(C(C)(C)C)c2)(COC(=O)CCc2cc(C(C)(C)C)c(O)c(C(C)(C)C)c2)COC(=O)CCc2cc(C(C)(C)C)c(O)c(C(C)(C)C)c2)cc(C(C)(C)C)c1O . Reported solubility (mole fraction)?
Result: 0.00105

---

# CONDITION INFO: in ethanol, 318.15 K
ASSAY METRIC: solubility (mole fraction)

Q: Entry under review: CC(C)(C)c1cc(CCC(=O)OCC(COC(=O)CCc2cc(C(C)(C)C)c(O)c(C(C)(C)C)c2)(COC(=O)CCc2cc(C(C)(C)C)c(O)c(C(C)(C)C)c2)COC(=O)CCc2cc(C(C)(C)C)c(O)c(C(C)(C)C)c2)cc(C(C)(C)C)c1O . Reported solubility (mole fraction)?
Result: 0.00238

---

# CONDITION INFO: in methanol, 323.15 K
ASSAY METRIC: solubility (mole fraction)
Format: numeric value only, no unit, no commentary.

Q: Entry under review: CC(C)(C)c1cc(CCC(=O)OCC(COC(=O)CCc2cc(C(C)(C)C)c(O)c(C(C)(C)C)c2)(COC(=O)CCc2cc(C(C)(C)C)c(O)c(C(C)(C)C)c2)COC(=O)CCc2cc(C(C)(C)C)c(O)c(C(C)(C)C)c2)cc(C(C)(C)C)c1O . Reported solubility (mole fraction)?
Result: 0.00287

---

# CONDITION INFO: in ethanol, 323.15 K
ASSAY METRIC: solubility (mole fraction)
Format: numeric value only, no unit, no commentary.

Q: Entry under review: CC(C)(C)c1cc(CCC(=O)OCC(COC(=O)CCc2cc(C(C)(C)C)c(O)c(C(C)(C)C)c2)(COC(=O)CCc2cc(C(C)(C)C)c(O)c(C(C)(C)C)c2)COC(=O)CCc2cc(C(C)(C)C)c(O)c(C(C)(C)C)c2)cc(C(C)(C)C)c1O . Reported solubility (mole fraction)?
Result: 0.00351

---

# CONDITION INFO: in isopropanol, 328.15 K
ASSAY METRIC: solubility (mole fraction)
Format: numeric value only, no unit, no commentary.

Q: Entry under review: CC(C)(C)c1cc(CCC(=O)OCC(COC(=O)CCc2cc(C(C)(C)C)c(O)c(C(C)(C)C)c2)(COC(=O)CCc2cc(C(C)(C)C)c(O)c(C(C)(C)C)c2)COC(=O)CCc2cc(C(C)(C)C)c(O)c(C(C)(C)C)c2)cc(C(C)(C)C)c1O . Reported solubility (mole fraction)?
Result: 0.00411

---

# CONDITION INFO: in isopropanol, 323.15 K
ASSAY METRIC: solubility (mole fraction)
Format: numeric value only, no unit, no commentary.

Q: Entry under review: CC(C)(C)c1cc(CCC(=O)OCC(COC(=O)CCc2cc(C(C)(C)C)c(O)c(C(C)(C)C)c2)(COC(=O)CCc2cc(C(C)(C)C)c(O)c(C(C)(C)C)c2)COC(=O)CCc2cc(C(C)(C)C)c(O)c(C(C)(C)C)c2)cc(C(C)(C)C)c1O . Reported solubility (mole fraction)?
Result: 0.00252

---

# CONDITION INFO: in isopropanol, 303.15 K
ASSAY METRIC: solubility (mole fraction)

Q: Entry under review: CC(C)(C)c1cc(CCC(=O)OCC(COC(=O)CCc2cc(C(C)(C)C)c(O)c(C(C)(C)C)c2)(COC(=O)CCc2cc(C(C)(C)C)c(O)c(C(C)(C)C)c2)COC(=O)CCc2cc(C(C)(C)C)c(O)c(C(C)(C)C)c2)cc(C(C)(C)C)c1O . Reported solubility (mole fraction)?
Result: 0.000406

---

# CONDITION INFO: in methanol, 298.15 K
ASSAY METRIC: solubility (mole fraction)
Format: numeric value only, no unit, no commentary.

Q: Entry under review: CC(C)(C)c1cc(CCC(=O)OCC(COC(=O)CCc2cc(C(C)(C)C)c(O)c(C(C)(C)C)c2)(COC(=O)CCc2cc(C(C)(C)C)c(O)c(C(C)(C)C)c2)COC(=O)CCc2cc(C(C)(C)C)c(O)c(C(C)(C)C)c2)cc(C(C)(C)C)c1O . Reported solubility (mole fraction)?
Result: 0.000332

---

# CONDITION INFO: in ethanol, 313.15 K
ASSAY METRIC: solubility (mole fraction)
Format: numeric value only, no unit, no commentary.

Q: Entry under review: CC(C)(C)c1cc(CCC(=O)OCC(COC(=O)CCc2cc(C(C)(C)C)c(O)c(C(C)(C)C)c2)(COC(=O)CCc2cc(C(C)(C)C)c(O)c(C(C)(C)C)c2)COC(=O)CCc2cc(C(C)(C)C)c(O)c(C(C)(C)C)c2)cc(C(C)(C)C)c1O . Reported solubility (mole fraction)?
Result: 0.0016

---

# CONDITION INFO: in isopropanol, 308.15 K
ASSAY METRIC: solubility (mole fraction)
Format: numeric value only, no unit, no commentary.

Q: Entry under review: CC(C)(C)c1cc(CCC(=O)OCC(COC(=O)CCc2cc(C(C)(C)C)c(O)c(C(C)(C)C)c2)(COC(=O)CCc2cc(C(C)(C)C)c(O)c(C(C)(C)C)c2)COC(=O)CCc2cc(C(C)(C)C)c(O)c(C(C)(C)C)c2)cc(C(C)(C)C)c1O . Reported solubility (mole fraction)?
Result: 0.000631

---

# CONDITION INFO: in isopropanol, 298.15 K
ASSAY METRIC: solubility (mole fraction)
Format: numeric value only, no unit, no commentary.

Q: Entry under review: CC(C)(C)c1cc(CCC(=O)OCC(COC(=O)CCc2cc(C(C)(C)C)c(O)c(C(C)(C)C)c2)(COC(=O)CCc2cc(C(C)(C)C)c(O)c(C(C)(C)C)c2)COC(=O)CCc2cc(C(C)(C)C)c(O)c(C(C)(C)C)c2)cc(C(C)(C)C)c1O . Reported solubility (mole fraction)?
Result: 0.000239

---

# CONDITION INFO: in methanol, 303.15 K
ASSAY METRIC: solubility (mole fraction)

Q: Entry under review: CC(C)(C)c1cc(CCC(=O)OCC(COC(=O)CCc2cc(C(C)(C)C)c(O)c(C(C)(C)C)c2)(COC(=O)CCc2cc(C(C)(C)C)c(O)c(C(C)(C)C)c2)COC(=O)CCc2cc(C(C)(C)C)c(O)c(C(C)(C)C)c2)cc(C(C)(C)C)c1O . Reported solubility (mole fraction)?
Result: 0.000544

---

# CONDITION INFO: in ethanol, 298.15 K
ASSAY METRIC: solubility (mole fraction)
Format: numeric value only, no unit, no commentary.

Q: Entry under review: CC(C)(C)c1cc(CCC(=O)OCC(COC(=O)CCc2cc(C(C)(C)C)c(O)c(C(C)(C)C)c2)(COC(=O)CCc2cc(C(C)(C)C)c(O)c(C(C)(C)C)c2)COC(=O)CCc2cc(C(C)(C)C)c(O)c(C(C)(C)C)c2)cc(C(C)(C)C)c1O . Reported solubility (mole fraction)?
Result: 0.000445

---

# CONDITION INFO: in methanol, 313.15 K
ASSAY METRIC: solubility (mole fraction)
Format: numeric value only, no unit, no commentary.

Q: Entry under review: CC(C)(C)c1cc(CCC(=O)OCC(COC(=O)CCc2cc(C(C)(C)C)c(O)c(C(C)(C)C)c2)(COC(=O)CCc2cc(C(C)(C)C)c(O)c(C(C)(C)C)c2)COC(=O)CCc2cc(C(C)(C)C)c(O)c(C(C)(C)C)c2)cc(C(C)(C)C)c1O . Reported solubility (mole fraction)?
Result: 0.00126

---

# CONDITION INFO: in methanol, 328.15 K
ASSAY METRIC: solubility (mole fraction)
Format: numeric value only, no unit, no commentary.

Q: Entry under review: CC(C)(C)c1cc(CCC(=O)OCC(COC(=O)CCc2cc(C(C)(C)C)c(O)c(C(C)(C)C)c2)(COC(=O)CCc2cc(C(C)(C)C)c(O)c(C(C)(C)C)c2)COC(=O)CCc2cc(C(C)(C)C)c(O)c(C(C)(C)C)c2)cc(C(C)(C)C)c1O . Reported solubility (mole fraction)?
Result: 0.00429
